The following compounds are shown together with reported IC50 values.
# ASSAY_TARGET: mouse VISTA (mVISTA) (Mus musculus)
# Construct: expressed in transfected cells; host or cells: Human embryonic kidney 293T cells
# Sequence (Q9D659 33-308): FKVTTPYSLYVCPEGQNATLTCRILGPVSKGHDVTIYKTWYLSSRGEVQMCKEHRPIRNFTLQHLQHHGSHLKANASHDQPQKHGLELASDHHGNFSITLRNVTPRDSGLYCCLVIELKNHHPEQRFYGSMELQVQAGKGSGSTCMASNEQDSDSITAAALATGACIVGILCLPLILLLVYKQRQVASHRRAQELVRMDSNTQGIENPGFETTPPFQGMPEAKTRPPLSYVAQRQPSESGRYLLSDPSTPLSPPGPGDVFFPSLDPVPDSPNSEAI
# ASSAY: Cell-Based Binding High-Content Assay For mVISTA (HC CBA mVISTA)
# MEASUREMENT_CONTEXT: read-out: HC CBA mVISTA IC50
Positions of bridges follow the written chain, without caps; N, C: chain ends. Non-standard residues stand in square brackets, D forms with d. Residues, ends and D or L forms follow the SMILES beside them. Phe(3-Cl) = N[C@@H](Cc1cccc(Cl)c1)C(=O)O; Phe(3-Me) = Cc1cccc(C[C@H](N)C(=O)O)c1; Ahp(2) = CCCCC[C@H](N)C(=O)O; NMeNle = CCCC[C@H](NC)C(=O)O; Tle = CC(C)(C)[C@H](N)C(=O)O; NHexGly = CCCCCCNCC(=O)O; Nle = CCCC[C@H](N)C(=O)O; Orn = NCCC[C@H](N)C(=O)O
// return the numeric value with its unit appended

The examples below pair each entry with its known result.
INSERT INTO results (compound, assay_target, readout_label, measurement) VALUES
  ('CCCCCCN1CC(=O)N[C@@H](Cc2ccc(O)cc2)C(=O)N[C@@H](CCCCC)C(=O)N[C@@H](CC(N)=O)C(=O)N[C@@H](CCCNC(=N)N)C(=O)N(C)[C@@H](CCCC)C(=O)N[C@@H](CCCCC)C(=O)N2CCC[C@H]2C(=O)N[C@@H](C(C)C)C(=O)N[C@@H](C(C)C)C(=O)N[C@H](C(=O)NCC(=O)O)CSCC(=O)N[C@@H](Cc2ccccc2)C(=O)N[C@@H](Cc2cccc(C)c2)C(=O)N[C@@H](CC(=O)O)C1=O [compound 1344] ({CH2CO}-F[Phe(3-Me)]D[NHexGly]Y[Ahp(2)]NR[NMeNle][Ahp(2)]PVVCG-OH; thioether N-14)', 'mouse VISTA (mVISTA) (Mus musculus)', 'IC50', '11 nM'),
  ('CCCCCCN1CC(=O)N[C@@H](Cc2ccc(O)cc2)C(=O)N[C@@H](CCCC)C(=O)N[C@@H](CC(=O)O)C(=O)N[C@@H](CCCN)C(=O)N[C@@H](CC(C)C)C(=O)N[C@@H](CCCCC)C(=O)N2CCC[C@H]2C(=O)N[C@@H](C(C)C)C(=O)N[C@@H](CO)C(=O)N[C@H](C(=O)NCC(=O)O)CSCC(=O)N[C@@H](Cc2ccccc2)C(=O)N[C@@H](Cc2c[nH]c3ccccc23)C(=O)N[C@@H](CC(=O)O)C1=O [Example 1355] ({CH2CO}-FWD[NHexGly]Y[Nle]D[Orn]L[Ahp(2)]PVSCG-OH; thioether N-14)', 'mouse VISTA (mVISTA) (Mus musculus)', 'IC50', '33.8 nM'),
  ('CCCCCCN1CC(=O)N[C@@H](Cc2ccc(O)cc2)C(=O)N[C@@H](CC(C)C)C(=O)N[C@@H](CC(N)=O)C(=O)N[C@@H](CCCNC(=N)N)C(=O)N(C)[C@@H](CCCC)C(=O)N[C@@H](CCCCC)C(=O)N2CCC[C@H]2C(=O)N[C@@H](C(C)(C)C)C(=O)N[C@@H](CO)C(=O)N[C@H](C(=O)NCC(N)=O)CSCC(=O)N[C@@H](Cc2ccccc2)C(=O)N[C@@H](Cc2cccc(Cl)c2)C(=O)N[C@@H](CC(=O)O)C1=O [compound 1339] ({CH2CO}-F[Phe(3-Cl)]D[NHexGly]YLNR[NMeNle][Ahp(2)]P[Tle]SCG-NH2; thioether N-14)', 'mouse VISTA (mVISTA) (Mus musculus)', 'IC50', '31.6 nM'),
  ('CCCCCCN1CC(=O)N[C@@H](Cc2ccc(O)cc2)C(=O)N[C@@H](CC(C)C)C(=O)NCC(=O)N[C@@H](CCCNC(=N)N)C(=O)N[C@@H](Cc2ccc(O)cc2)C(=O)N[C@@H](CCCCC)C(=O)N2CCC[C@H]2C(=O)N[C@@H](C(C)C)C(=O)N[C@@H](CC(=O)O)C(=O)N[C@H](C(=O)NCC(N)=O)CSCC(=O)N[C@@H](Cc2ccccc2)C(=O)N[C@@H](Cc2c[nH]c3ccccc23)C(=O)N[C@@H](CC(=O)O)C1=O [Example 1416] ({CH2CO}-FWD[NHexGly]YLGRY[Ahp(2)]PVDCG-NH2; thioether N-14)', 'mouse VISTA (mVISTA) (Mus musculus)', 'IC50', '51.7 nM'),
  ('CCCCCCN1CC(=O)N[C@@H](Cc2ccc(O)cc2)C(=O)N[C@@H](CC(C)C)C(=O)N[C@@H](CC(=O)O)C(=O)N[C@@H](CCCN)C(=O)N[C@@H](CC(C)C)C(=O)N[C@@H](CCCCC)C(=O)N2CCC[C@H]2C(=O)N[C@@H](C(C)C)C(=O)N[C@@H](CO)C(=O)N[C@H](C(=O)NCC(N)=O)CSCC(=O)N[C@@H](Cc2ccccc2)C(=O)N[C@@H](Cc2c[nH]c3ccccc23)C(=O)N[C@@H](CC(=O)O)C1=O [Example 1359] ({CH2CO}-FWD[NHexGly]YLD[Orn]L[Ahp(2)]PVSCG-NH2; thioether N-14)', 'mouse VISTA (mVISTA) (Mus musculus)', 'IC50', '17.1 nM');

[Q] Specify measured IC50 for CCCCCCN1CC(=O)N[C@@H](Cc2ccc(O)cc2)C(=O)N[C@@H](CCCC)C(=O)N[C@@H](CC(N)=O)C(=O)N[C@@H](CCCNC(=N)N)C(=O)N[C@@H](CC(C)C)C(=O)N[C@@H](CCCCC)C(=O)N2CCC[C@H]2C(=O)N[C@@H](C(C)C)C(=O)N2CCC[C@H]2C(=O)N[C@H](C(=O)NCC(=O)O)CSCC(=O)N[C@@H](Cc2ccccc2)C(=O)N[C@@H](Cc2ccc(O)cc2)C(=O)N[C@@H](CC(=O)O)C1=O [compound 1121] ({CH2CO}-FYD[NHexGly]Y[Nle]NRL[Ahp(2)]PVPCG-OH; thioether N-14) .
[A] 32.4 nM

[Q] Specify measured IC50 for CCCCCCN1CC(=O)N[C@@H](Cc2ccc(O)cc2)C(=O)N[C@@H](CCCC)C(=O)N[C@@H](CC(N)=O)C(=O)N[C@@H](CCCNC(=N)N)C(=O)N(C)[C@@H](CCCC)C(=O)N[C@@H](CCCCC)C(=O)N2CCC[C@H]2C(=O)N[C@@H](C(C)C)C(=O)N[C@@H](CC(=O)O)C(=O)N[C@H](C(=O)NCC(=O)O)CSCC(=O)N[C@@H](Cc2cccc(C)c2)C(=O)N[C@@H](Cc2ccc(O)cc2)C(=O)N[C@@H](CC(=O)O)C1=O [compound 1211] ({CH2CO}-[Phe(3-Me)]YD[NHexGly]Y[Nle]NR[NMeNle][Ahp(2)]PVDCG-OH; thioether N-14) .
[A] 22.1 nM

[Q] Specify measured IC50 for CCCCCCN1CC(=O)N[C@@H](Cc2ccc(O)cc2)C(=O)N[C@@H](CCCC)C(=O)N[C@@H](CC(=O)O)C(=O)N[C@@H](CCCN)C(=O)N(C)[C@@H](CCCC)C(=O)N[C@@H](CCCCC)C(=O)N2CCC[C@H]2C(=O)N[C@@H](C(C)(C)C)C(=O)N[C@@H](CC(=O)O)C(=O)N[C@H](C(=O)NCC(N)=O)CSCC(=O)N[C@@H](Cc2ccccc2)C(=O)N[C@@H](Cc2c[nH]c3ccccc23)C(=O)N[C@@H](CC(=O)O)C1=O [Example 1393] ({CH2CO}-FWD[NHexGly]Y[Nle]D[Orn][NMeNle][Ahp(2)]P[Tle]DCG-NH2; thioether N-14) .
[A] 17.2 nM
